experiment: inhibitors of TWEAK-Fn14 signaling, primary screen, luciferase reporter cells, uHTS (AID 1159606); conditions: TWEAK-stimulated Fn14 reporter cells, luciferase luminescence, 8 h; at 10 µM; hits give high values
In all, about 360,000 compounds went through this assay and about 7,300 (2%) were called active. What follows is part of a selection rich in actives, with near analogues and random picks from the rest.
ENDPOINT_NAME: inhibition (%)
Output spec: scalar in %, unitless text.

COMPOUND	inhibition (%)
CC1(C)OC(=O)C2=C(C[C@@H](C3CCCCC3)O[C@@H]2c2ccc(Cl)cc2)O1	-5.53
CC(=O)c1ccc(NC(=O)C(C)N(C)CC(=O)Nc2ccccc2Cl)cc1 (centres undefined)	-3.04
CCN(CC)C(=O)[C@H]1C[C@H](CC(=O)NCC23CC4CC(CC(C4)C2)C3)C(=O)N2CCc3c([nH]c4cc(CCC(=O)N(C)C)ccc34)[C@]12C	6.21

Here's the next entry for you.
Q: Quote inhibition reported for COc1ccc(C)cc1NC(=O)NCCCCc1ccccc1 please.
A: -2.36

---

assay: inhibitors of TWEAK-Fn14 signaling, primary screen, luciferase reporter cells, uHTS (AID 1159606); conditions: TWEAK-stimulated Fn14 reporter cells, luciferase luminescence, 8 h; at 10 µM; hits give high values
In all, about 360,000 compounds went through this assay and about 7,300 (2%) were called active. This is one part of a sample in which actives are shown more often than they occur.
ENDPOINT_NAME: inhibition

Here's what some known entries look like.
COMPOUND	RESULT
O=S(=O)(NCC1CCCO1)c1ccc2ccccc2c1 (centres undefined)	-2.08% (inactive)
CCN(CC)S(=O)(=O)c1ccc(C(=O)N2CCN(C3=NS(=O)(=O)c4ccccc43)CC2)cc1	-0.95% (inactive)
CCOc1ccc(S(=O)(=O)NCC2CCCO2)cc1 (centres undefined)	-13.5% (inactive)

// next entry
Q: Retrieve inhibition measured for CCOC(=O)/C(=C\c1ccc([N+](=O)[O-])cc1)C(=O)c1cc(C(C)=O)c(Nc2ccccc2)s1 and print it.
A: 104% (active)

---

test: inhibitors of TWEAK-Fn14 signaling, primary screen, luciferase reporter cells, uHTS (AID 1159606); settings: TWEAK-stimulated Fn14 reporter cells, luciferase luminescence, 8 h; at 10 µM
Out of some 360,000 compounds screened, about 7,300 (2%) were called active. No stated cut-off is given here; in the data, active means inhibition above about 50%; inactive means the rest. What follows is part of a selection rich in actives, with near analogues and random picks from the rest.
Valid outcomes are listed here; reply with one: true for active, false for inactive

Examples from the recorded data:
COMPOUND	CLASS_ASSIGNMENT
O=C(COC(=O)c1ccccn1)NNC(=O)c1ccc([N+](=O)[O-])cc1	false
Cc1ccccc1S(=O)(=O)NC(=O)C1(C)CCN1C(=O)C1(c2ccccc2)CCCC1 (centres undefined)	false
CC(=O)N1C(C)c2ccccc2C(C)(C)CC12CCCCC2 (centres undefined)	false
N/C(=N\OC(=O)Cc1ccc([N+](=O)[O-])cc1)c1ccccn1	true
CC1(C(=O)NS(=O)(=O)c2ccccc2)CCN1C(=O)C1CCCCC1 (centres undefined)	false

Q: Called result for CCOC(=O)N1CCC(NC(=O)c2ccc3nc(N4CCOCC4)sc3c2)CC1
A: false

Q: Which result was noted for this compound in the test: O=C(NCc1ccccc1)[C@@H]1CSC2c3ccccc3C(=O)N21 (some centres undefined)
A: false

Q: Test call for this compound, please: c1c2c(cc3sc(N4CCCCC4)nc13)OCCO2
A: true

Q: GET /call?item= CCCSc1nc2c(c(=O)n(C)c(=O)n2C)n1Cc1ccc(C)cc1 returns the recorded outcome of this test.
A: true

---

assay: inhibitors of TWEAK-Fn14 signaling, primary screen, luciferase reporter cells, uHTS (AID 1159606); conditions: TWEAK-stimulated Fn14 reporter cells, luciferase luminescence, 8 h; at 10 µM
Screen size: about 360,000 compounds; about 7,300 (2%) were called active. No stated cut-off is given here; in the data, active means inhibition above about 50%; inactive means the rest. The entries come from a sample that favours actives as a whole.
Respond only with the outcome that fits, drawn from active, inactive

COMPOUND	CLASS_ASSIGNMENT
CCOC(=O)/C=C/CN(C(=O)OC(C)(C)C)S(=O)(=O)N1CC=CC1	inactive
Cc1cc(C(=O)COc2ccccc2[N+](=O)[O-])c(C)n1-c1cccc(S(=O)(=O)N2CCOCC2)c1	active
O=C1C2CCCN2C(=O)N1CCCCN1CCN(c2cccc(C(F)(F)F)c2)CC1 (stereo unspecified)	inactive
Cc1noc(C)c1S(=O)(=O)N1CCCC(C(=O)Nc2nccs2)C1 (stereo unspecified)	inactive
O=C(CC1CCCCC1)NCc1ccc(F)cc1	inactive

Q: Could you please tell me the result logged for CN(c1ccccc1)S(=O)(=O)c1cc(C(=O)N2CCN(c3ncccn3)CC2)ccc1Cl in this assay?
A: inactive

Q: // param item: OCC1(CO)CC2(C1)CC(CO)(CO)C2 ; yields the recorded call
A: inactive

Q: Recorded test call requested for CCC(C(=O)OC)n1cnc2scc(-c3ccc(C)cc3)c2c1=O (stereo unspecified)
A: inactive

---

Some compounds, each annotated with its measured inhibition.
assay: inhibitors of TWEAK-Fn14 signaling, primary screen, luciferase reporter cells, uHTS (AID 1159606); settings: TWEAK-stimulated Fn14 reporter cells, luciferase luminescence, 8 h; at 10 µM; hits give high values
The whole screen tested about 360,000 compounds, of which about 7,300 (2%) were called active. The entries come from a sample that favours actives as a whole.
Please respond with the number in % and leave the unit unwritten.

Worked examples follow.
COMPOUND	inhibition, %
Oc1cccc2ccc(/C=C/c3ccc(Br)s3)nc12	57.6
COCCn1c(C)cc(C(=O)COC(=O)CNC(=O)c2ccco2)c1C	5.04
COc1ccccc1C(=O)NCCn1cc(SCC(=O)NCc2ccco2)c2ccccc21	8.15

Q: Give inhibition for CC1CN(C(=O)CCC(=O)NCCCN2CCC(Cc3ccccc3)CC2)c2cc(Cl)ccc2O1 (stereo unspecified)
A: -12.8

Q: Indicate its recorded inhibition; the compound in question is FC(F)(F)Oc1ccc(-c2cn3cccnc3n2)cc1
A: -15.1

Q: Give me measured inhibition, please, for this compound: CS(=O)(=O)Nc1cccc(-c2cn3ccccc3n2)c1
A: -6.02

Q: State its inhibition: CCCCc1c(-c2ccc(Br)cc2)ncn1CCc1ccccc1OC
A: 38.9

Q: In one line, give reported inhibition of the entry CCCCC(=O)Nc1c2c(nn1-c1ccc([N+](=O)[O-])cc1)CS(=O)(=O)C2 .
A: -8.65

Q: Supply recorded inhibition for CCOc1ccc(-n2c(SC(C)C(=O)OC)nc3c(c2=O)SCC3)cc1 (stereo unspecified) here.
A: 1.38

Q: Note down inhibition recorded for Cc1ccc(-c2cn3cc([N+](=O)[O-])ccc3n2)cc1
A: 76.3

Q: Item Cc1ccc(-c2nc3ccc(Br)cn3c2Cc2ccccc2C(F)(F)F)cc1 : provide inhibition
A: 5.76

Q: Respond only with inhibition recorded for CCCN(CC(=O)Nc1ccc(OC)c(OC)c1)CC(=O)Nc1ccc(F)c(F)c1F
A: -5.89

Q: Read the entry O=C(Nc1ccccc1Cl)O/N=C(/c1ccccc1)c1ccccn1 and write its reported inhibition.
A: 60.2

Q: Retrieve inhibition measured for O=C(O)c1ccc(/C=C2\SC(=S)N(NC(=O)c3ccc(Br)cc3)C2=O)cc1 and print it.
A: 2.06

Q: Look up inhibition of COc1ccc(-c2nc3ccc(Br)cn3c2Cc2ccc(C)cc2)cc1OC and report it.
A: -20.3

Q: Give inhibition for the following compound: CN(Cc1cn(Cc2ccc(C(F)(F)F)cc2)nn1)C1CN(Cc2cn(Cc3ccc(C(F)(F)F)cc3)nn2)S(=O)(=O)C1 (stereo unspecified)
A: 33.8

Q: Provide measured inhibition value, entry: C[C@H]([C@@H](O)[C@@H](O)[C@@H](C)C(C)(C)C)[C@H]1CC[C@H]2C3CC[C@H]4C[C@H](OS(=O)(=O)O)[C@@H](OS(=O)(=O)O)C[C@]4(C)[C@H]3CC[C@]12C (stereo partly specified)
A: 3.39

Q: Answer with the recorded inhibition for the compound listed here: Cc1ccc(OCC(=O)c2cc(C)n(Cc3ccco3)c2C)c([N+](=O)[O-])n1
A: 42.9

Q: For CN1CCN(S(=O)(=O)c2cccc(C(=O)Nc3cccc(S(N)(=O)=O)c3)c2)CC1 , write its inhibition.
A: 14.8

Q: Please supply the value of reported inhibition for the item O=C1/C(=C\c2ccccc2Cl)SC(=S)N1CCC(=O)N1CCCc2ccccc21
A: 3.74

Q: Indicate the recorded inhibition value for this compound: O=C1NC[C@H](CCCCN2C[C@H](Cc3ccc(O)cc3)N(CCc3ccccc3)C(=O)C2=O)N(CCc2ccccc2)C1=O
A: 13.5

---

assay: inhibitors of TWEAK-Fn14 signaling, primary screen, luciferase reporter cells, uHTS (AID 1159606); settings: TWEAK-stimulated Fn14 reporter cells, luciferase luminescence, 8 h; at 10 µM
The whole screen tested about 360,000 compounds, of which about 7,300 (2%) were called active. Cut-off read from the data, not from the text of the source: active = inhibition above about 50%; inactive = the rest. The full list was thinned out, with actives kept by preference.
Assign a class; possible classes are T (active), F (inactive)

COMPOUND	CLASS_ASSIGNMENT
N#Cc1ccc(-c2nc3c(Cl)cc(C(F)(F)F)cn3c2Cc2ccccc2C(F)(F)F)cc1	F

Next, consider the following compound.
Q: Dear colleague, could you share the recorded outcome for O=S1(=O)CCC(NC(=S)SCc2ccccc2Br)C1 (stereo not drawn) when you have a moment?
A: T
